// reported self-cleavage per item
B1: HDV Ribozyme (parent)
chain: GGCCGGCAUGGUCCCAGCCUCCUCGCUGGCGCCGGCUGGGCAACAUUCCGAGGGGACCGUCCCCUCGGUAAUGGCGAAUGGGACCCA

- Variants of: B1
- Test: self-cleavage, relative activity (ratio to wild type); higher = more cleavage; co-transcriptional
Give the figure by itself; no unit, no explanation.

Record request: self-cleavage value, item GGCCGGCAUGGUCCCAGCCUCCUCGCUGGCGCCGGCUGGGCAACAUUCCGAGGGGACCGUCCGCUCGGUAAUCGCGAAUGGGACCCA [C63G G73C]
0.437

Recorded self-cleavage of GGCCGGCAUGGUCCCAGCCUCCUCGCUGGCGCCGGCUGGGCAACCUUCCGAGGGGACCGUCCCCUCGGUAAUGGCGCAUGGGACCCA [A45C A77C] , please.
0.277

What does the record list as self-cleavage for GGCCGGCAUCGUCCCAGCCUCCUCGCUGGCGCCGGCUGGGCAACAUUCCGAGGGGACCGUCCCCUCGGUAAUGGCGAAUGGGACGCA [G10C C85G] ?
0.76

self-cleavage lookup needed for GGCCGGCUUGGUCCCAGCCUCCUCGCUGGCGCCGGCUGGGCAACAUUCCGAGGGGACCGGCCCCUCGGUAAUGGCGAAUGGGACCCA [A8U U60G] , thanks.
0.89

Further cases:
Can you look up the measured self-cleavage of GGCCGGCAUGGUCCCAGCCUCCUCGCUGGCGCCGGUUGGGCAACAUUCCGAGGGGACCGUCCCCUCGGUAAUGGCGAAUGGGAGCCA [C36U C84G] for me?
0.324

Suppose we examine the variant GGCCGGCAUGGUCCCAGCCUCCUCGUUGGCGCCGGCUGGGCAACAUUCCGAGGGGACCGUCCCCUCGGUAAUGGCGAAUGGGACCUA [C26U C86U] ; what self-cleavage value has been reported?
0.831

Tell me the measured self-cleavage of GGCCGGCAUGGUCCCAGCGUCCUCGCUGGCGCCGGCUGGGCAACAUUCCGAGGGGACCGUCCCCUCGGUAAUGGCGUAUGGGACCCA [C19G A77U] , please.
0.0437

Consider the variant shown here: GGCCGGCAUGGUCCCAGCCUCCUCGCUGGCGCCGGCUGGGCAACAUUCAGAGGGGACCGUCCCCUCGGUAAUGGUGAAUGGGACCCA [C49A C75U] What is its recorded self-cleavage?
0.175
